Test system: NCI-H1944;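 note: CTB read-out in 384-well plates, triplicate wells, NPI normalised per plate against 1 µM phenylarsine oxide (0) and 0.1% DMSO (1) controls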
Experiment: normalised cell viability (NPI; 0 = phenylarsine oxide control, 1 = DMSO control) (fraction of DMSO control); NCI-H1944 is a non-small cell lung cancer line; higher = more viable cells (less compound toxicity)
Details: glucocorticoid arm: hydrocortisone 2.75 uM co-treatment; compound 1 µM; 6 days
Structures can show the parent of a compound that is named as a salt. Whole data set: some 1,900 compounds, median “normalised cell viability (NPI; 0 = phenylarsine oxide control, 1 = DMSO control)” near 1, cut for the lowest 2% near 0.039. The sample as a whole holds a higher share of the lowest values than the screen did.
assay metric: normalised cell viability

QUERY: // fetch normalised cell viability given entry Cc1nc(C#Cc2ccnc(Cl)c2)c(C)n1-c1ccc(OC(F)(F)F)cc1
RESULT: 0.993

QUERY: Consider the compound C=CC(=O)Nc1cc(Nc2nccc(-c3cn(C)c4ccccc34)n2)c(OC)cc1N(C)CCN(C)C . State its measured normalised cell viability.
RESULT: 0.891

QUERY: Identify the reported normalised cell viability for the following entry. CN(C)C(=O)C(CCN1CCC(O)(c2ccc(Cl)cc2)CC1)(c1ccccc1)c1ccccc1 [Loperamide HCl]
RESULT: 1.02

QUERY: Retrieve normalised cell viability measured for OC1(c2ccc(Cl)cc2)CCN(Cc2c[nH]c3ccccc23)CC1 and print it.
RESULT: 0.972
